// pKd lookup, one value per entry
assay: Chemical equilibrium constant (Kd) and fluorescence ratio response of the tracer with glutathione (GSH) in vitro; format: binding; settings: equilibration with GSH
When answering, recall that pKd equals minus log10 of the concentration in mol/L, and write that number alone.

CC(=O)OCOC(=O)CC[C@H](NC(=O)C1CCN(C(=O)C(C#N)=Cc2cc3cc4c5c(c3oc2=O)CCCN5CCC4)CC1)C(=O)OCOC(C)=O ... 2.43

As a next step, examine the compound that follows.
Item: `CC(=O)OCOC(=O)C1CCN(C(=O)C(C#N)=Cc2cc3cc4c5c(c3oc2=O)CCCN5CCC4)CC1` | pKd: 2.55

---

test: Chemical equilibrium constant (Kd) of the tracer with β-mercaptoethanol, from fluorescence emission after equilibration; format: binding
assayMetric: Kd (mM)
The reply should contain only the number, in mM.

Solved cases (3 shown):
CN(C)C(=O)C(C#N)=Cc1cc2cc3c4c(c2oc1=O)CCCN4CCC3 ... 12
CCOC(=O)CNC(=O)C(C#N)=Cc1cc2cc3c4c(c2oc1=O)CCCN4CCC3 ... 14
CCN(CC)c1ccc2cc(C=C(C#N)C(=O)N(C)C)c(=O)oc2c1 ... 2.2

Sample `N#CC(=Cc1cc2cc3c4c(c2oc1=O)CCCN4CCC3)C(=O)N1CCC(C(=O)NCC[P+](c2ccccc2)(c2ccccc2)c2ccccc2)CC1` ; Kd observed: 2.2

Recorded values, source patent US10620215B2.
